Tested on: K562
Test: Cell cycle arrest in human K562 cells assessed as accumulation at S phase at 10 uM after 24 hrs by propidium iodide staining-based flow cytometric analysis (reference value: 50.3%)
Type: functional
observable: Activity (%)
Numbers only here, please. The scale is %.

Cc1nc(-c2ccccc2)cc2nn(-c3ccccc3)cc12 36.1

Lookup result for `Cc1nc(-c2ccsc2)cc2nn(-c3ccccc3)cc12` ; measured Activity: 29.2

Lookup result for `CCCCc1cc2nn(-c3ccccc3)cc2cn1` ; measured Activity: 12.8

---

Tested on: K562
Experiment: Cell cycle arrest in human K562 cells assessed as accumulation at G2/M phase at 10 uM after 24 hrs by propidium iodide staining-based flow cytometric analysis (reference value: 15%)
Format: functional
Kindly apply the following: Satisfied if Activity is less than 40%, Not satisfied in every other case.

Input: Is Activity strictly under 40% for the entry `Cc1nc(C2CC2)cc2nn(-c3ccccc3)cc12` ?
Output: Satisfied

Input: Is Activity strictly under 40% for the entry `CCCCCc1cc2nn(-c3ccccc3)cc2cn1` ?
Output: Not satisfied

Input: Is Activity strictly under 40% for the entry `Cc1nc(-c2ccccc2)cc2nn(-c3ccccc3)cc12` ?
Output: Not satisfied

Input: Is Activity strictly under 40% for the entry `CCCCc1cc2nn(-c3ccccc3)cc2c(C(C)C)n1` ?
Output: Satisfied

Input: Is Activity strictly under 40% for the entry `CCCCc1cc2nn(-c3ccccc3)cc2c(C)n1` ?
Output: Not satisfied

---

Listing of entries alongside the reported Activity.
Tested on: K562
Assay: Cell cycle arrest in human K562 cells assessed as accumulation at S phase at 10 uM after 24 hrs by propidium iodide staining-based flow cytometric analysis (reference value: 50.3%)
Format: functional
Numbers only here, please. The scale is %.

Below: 5 compounds and their reported Activity.
CC(C)c1nc(-c2ccccc2)cc2nn(-c3ccccc3)cc12 46.6
CCCCCc1cc2nn(-c3ccccc3)cc2cn1 3.3
Cc1nc(C2CC2)cc2nn(-c3ccccc3)cc12 45.8
c1ccc(-n2cc3cnc(C4CC4)cc3n2)cc1 52.2
c1ccc(-c2cc3nn(-c4ccccc4)cc3cn2)cc1 5.5

Lookup result for `CCCCCc1cc2nn(-c3ccccc3)cc2c(C)n1` ; measured Activity: 28.3

Lookup result for `CCCCc1cc2nn(-c3ccccc3)cc2c(C)n1` ; measured Activity: 30.5

Lookup result for `c1ccc(-n2cc3cnc(-c4ccsc4)cc3n2)cc1` ; measured Activity: 37.3

Lookup result for `CCCCc1cc2nn(-c3ccccc3)cc2c(C(C)C)n1` ; measured Activity: 44.2

---

Tested on: K562
Experiment: Cell cycle arrest in human K562 cells assessed as accumulation at G2/M phase at 10 uM after 24 hrs by propidium iodide staining-based flow cytometric analysis (reference value: 15%)
Type: functional
Listing of entries alongside the reported Activity.
Numbers only here, please. The scale is %.

Below: 3 compounds and their reported Activity.
c1ccc(-c2cc3nn(-c4ccccc4)cc3cn2)cc1 74.7
Cc1nc(-c2ccsc2)cc2nn(-c3ccccc3)cc12 44.6
CCCCc1cc2nn(-c3ccccc3)cc2cn1 62.3

Lookup result for `c1ccc(-n2cc3cnc(C4CC4)cc3n2)cc1` ; measured Activity: 15.5

Lookup result for `CCCCCc1cc2nn(-c3ccccc3)cc2c(C)n1` ; measured Activity: 49.9

Lookup result for `c1ccc(-n2cc3cnc(-c4ccsc4)cc3n2)cc1` ; measured Activity: 41.1

Lookup result for `CC(C)c1nc(-c2ccccc2)cc2nn(-c3ccccc3)cc12` ; measured Activity: 18.3
